The entries below are paired with their reported IC50.
organism: Homo sapiens; assay: Inhibition of TRAP-6 (SFLLRN-NH2)-induced human gel filtered platelet aggregation (GFP).; assay type: functional
Numbered stars: 1 amine (or outer) side, 2 acyl side, 3 side chain; on linkers, the order of the positions; unused ones are H or OH. Square brackets hold non-standard residues; d marks the D form. Peptide text beside a SMILES is read from it. * marks the point of attachment. ξ: configuration not given here. Phe(4-F)ψ(2,4-Thz) = O=C(c1csc([C@H](Cc2ccc(F)cc2)N[*:1])n1)[*:2]; Phe(4-guanidino) = N=C(N)Nc1ccc(C[C@H](N)C(=O)O)cc1; Phe(4-F) = N[C@@H](Cc1ccc(F)cc1)C(=O)O; Cha = N[C@@H](CC1CCCCC1)C(=O)O; X2 = O=C(/C=C/c1ccccc1)*; ξV = CC(C)C(N)C(=O)O; Sar = CNCC(=O)O
Number in µM, nothing else.

See these solved cases before continuing.
CNCC(=O)N[C@@H](Cc1ccc(F)cc1)c1nc(C(=O)N[C@H](CC2CCCCC2)C(=O)N[C@@H](CCCNC(=N)N)C(=O)N[C@@H](Cc2ccccc2)C(N)=O)cs1 : 42
Cc1oc([C@H](Cc2ccc(F)cc2)NC(=O)C(N)CN)nc1C(=O)N[C@@H](CC1CCCCC1)C(=O)N[C@@H](CCCN=C(N)N)C(=O)NCc1ccccc1 (stereo partly specified) : 25
CNCC(=O)N[C@@H](Cc1ccc(F)cc1)c1nc(C(=O)N[C@@H](CC2CCCCC2)C(=O)N[C@@H](CCCN=C(N)N)C(=O)N[C@@H](Cc2ccccc2)C(N)=O)cs1 : 14
CC(=O)N[C@@H](Cc1ccc(F)cc1)c1nc(C(=O)N[C@@H](CC2CCCCC2)C(=O)N[C@@H](CCCNC(=N)N)C(=O)NCc2ccccc2)c(C)o1 : 19
CNCC(=O)N[C@@H](Cc1ccc(F)cc1)c1nc(C(=O)N[C@@H](CC2CCCCC2)C(=O)N[C@@H](CCCNC(=N)N)C(=O)NCc2ccccc2)c(C)o1 : 18
NCC(=O)N[C@@H](Cc1ccc(F)cc1)c1nc(C(=O)N[C@@H](CC2CCCCC2)C(=O)N[C@@H](CCCN=C(N)N)C(=O)NCc2ccccc2)co1 : 10
CC(C)C[C@H](NC(=O)[C@H](Cc1ccc(NC(=N)N)cc1)NC(=O)[C@H](Cc1ccc(F)cc1)NC(=O)/C=C/c1ccccc1)C(=O)N[C@@H](CCCN=C(N)N)C(=O)N[C@@H](CCCN=C(N)N)C(N)=O (X2-[Phe(4-F)][Phe(4-guanidino)]LRR-NH2) : 0.021
CC(C)C(N)C(=O)N[C@@H](Cc1ccc(F)cc1)c1nc(C(=O)N[C@@H](CC2CCCCC2)C(=O)N[C@@H](CCCN=C(N)N)C(=O)N[C@@H](Cc2ccccc2)C(N)=O)cs1 (stereo partly specified) (H-[ξV][Phe(4-F)ψ(2,4-Thz)][Cha]RF-NH2) : 4.6

Report IC50 for `CNCC(=O)N[C@@H](Cc1ccc(F)cc1)c1nc(C(=O)N[C@@H](Cc2ccccc2)C(=O)N[C@@H](CCCN=C(N)N)C(=O)NCc2ccccc2)cs1` please.
13

`CNCC(=O)N[C@@H](Cc1ccc(F)cc1)c1nc(C(=O)N[C@@H](CC2CCCCC2)C(=O)N[C@@H](CCCNC(=N)N)C(=O)NCc2ccccc2)cs1` ?
11

Entry to check: CNCC(=O)N[C@@H](Cc1ccc(F)cc1)c1nc(C(=O)N[C@@H](CC2CCCCC2)C(=O)N[C@@H](CCCN=C(N)N)C(=O)N[C@@H](Cc2ccc(O)cc2)C(N)=O)cs1 (H-[Sar][Phe(4-F)ψ(2,4-Thz)][Cha]RY-NH2)
5.5

----------
species: Homo sapiens; test: Inhibition of TRAP-6 (SFLLRN-NH2)-induced human gel filtered platelet aggregation (GFP).; assay type: functional
Numbered stars: 1 amine (or outer) side, 2 acyl side, 3 side chain; on linkers, the order of the positions; unused ones are H or OH. Square brackets hold non-standard residues; d marks the D form. Peptide text beside a SMILES is read from it. Phe(4-F)ψ(2,4-Thz) = O=C(c1csc([C@H](Cc2ccc(F)cc2)N[*:1])n1)[*:2]; Cha = N[C@@H](CC1CCCCC1)C(=O)O
MEASURE NAME: IC50 (µM)
Numeric only. Scale: µM

Study these solved cases before continuing.
NC(=O)[C@H](Cc1ccccc1)NC(=O)[C@H](CCCN=C(N)N)NC(=O)[C@H](CC1CCCCC1)NC(=O)c1csc([C@@H](N)Cc2ccc(F)cc2)n1 : 16
CC[C@H](C)[C@H](N)C(=O)N[C@@H](Cc1ccc(F)cc1)c1nc(C(=O)N[C@@H](CC2CCCCC2)C(=O)N[C@@H](CCCN=C(N)N)C(=O)N[C@@H](Cc2ccccc2)C(N)=O)cs1 (H-I[Phe(4-F)ψ(2,4-Thz)][Cha]RF-NH2) : 4

Below: the item to evaluate.
Tell me the measured IC50 of `NCC(=O)N[C@@H](Cc1ccc(F)cc1)c1nc(C(=O)N[C@@H](CC2CCCCC2)C(=O)N[C@@H](CCCN=C(N)N)C(N)=O)co1` , please.
13

----------
species on record: Homo sapiens; experiment: Inhibition of TRAP-6 (SFLLRN-NH2)-induced human gel filtered platelet aggregation (GFP).; type: functional
Numbered stars: 1 amine (or outer) side, 2 acyl side, 3 side chain; on linkers, the order of the positions; unused ones are H or OH. Square brackets hold non-standard residues; d marks the D form. Peptide text beside a SMILES is read from it. Phe(4-F)ψ(2,4-Thz) = O=C(c1csc([C@H](Cc2ccc(F)cc2)N[*:1])n1)[*:2]; Sar = CNCC(=O)O
MEASURE NAME: IC50

Please review the following examples before continuing.
NCCC(=O)N[C@@H](Cc1ccc(F)cc1)c1nc(C(=O)N[C@@H](CC2CCCCC2)C(=O)N[C@@H](CCCN=C(N)N)C(=O)NCc2ccccc2)co1 : 36 µM
CNCC(=O)N[C@@H](Cc1ccc(F)cc1)c1nc(C(=O)N[C@@H](CCCCN)C(=O)N[C@@H](CCCNC(=N)N)C(=O)NCCc2ccccc2)cs1 : > 100 µM

Returns the measured IC50 for the input molecule. Input: CNCC(=O)N[C@@H](Cc1ccc(F)cc1)c1nc(C(=O)N[C@@H](CCCN=C(N)N)C(=O)N[C@@H](CCCN=C(N)N)C(=O)N[C@@H](Cc2ccccc2)C(N)=O)cs1 (H-[Sar][Phe(4-F)ψ(2,4-Thz)]RRF-NH2)
> 100 µM

----------
Biological target: Proteinase-activated receptor 1 (Homo sapiens, UniProt P25116)
Sequence (P25116 whole entry): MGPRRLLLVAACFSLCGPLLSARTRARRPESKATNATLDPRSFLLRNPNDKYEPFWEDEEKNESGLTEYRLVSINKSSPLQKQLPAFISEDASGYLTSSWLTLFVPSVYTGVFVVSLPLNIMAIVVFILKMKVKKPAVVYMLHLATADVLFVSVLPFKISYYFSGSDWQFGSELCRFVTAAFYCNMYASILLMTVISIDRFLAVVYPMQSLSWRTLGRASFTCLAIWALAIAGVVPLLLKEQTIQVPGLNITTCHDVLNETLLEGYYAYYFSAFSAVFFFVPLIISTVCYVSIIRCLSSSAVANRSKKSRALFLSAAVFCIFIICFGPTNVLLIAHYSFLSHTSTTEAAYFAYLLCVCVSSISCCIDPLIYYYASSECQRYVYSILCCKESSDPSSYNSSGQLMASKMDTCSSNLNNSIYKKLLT
Test: Inhibition of [3H]S-(p-F-Phe)-Har-L-Har-KY-NH2 binding to a thrombin receptor (PAR-1) membrane preparation.
MEASURE NAME: IC50 (µM)
Field: numeric (µM). Do not append units.

CNCC(=O)N[C@@H](Cc1ccc(F)cc1)c1nc(C(=O)N[C@@H](CC2CCCCC2)C(=O)N[C@@H](CCCNC(=N)N)C(=O)NCc2ccccc2)cs1 : 10
CC(=O)N[C@@H](Cc1ccc(F)cc1)c1nc(C(=O)N[C@@H](CC2CCCCC2)C(=O)N[C@@H](CCCNC(=N)N)C(=O)NCc2ccccc2)c(C)o1 : 30
CNCC(=O)N[C@@H](Cc1ccc(F)cc1)c1nc(C(=O)N[C@@H](CC2CCCCC2)C(=O)N[C@@H](CCCN=C(N)N)C(=O)N[C@@H](Cc2ccccc2)C(N)=O)cs1 : 5.7

We now examine a further molecule.
Fill in the blank: the reported IC50 of `NCCC(=O)N[C@@H](Cc1ccc(F)cc1)c1nc(C(=O)N[C@@H](CC2CCCCC2)C(=O)N[C@@H](CCCN=C(N)N)C(=O)NCc2ccccc2)co1` is ____.
6.7

----------
species: Homo sapiens; assay: Inhibition of TRAP-6 (SFLLRN-NH2)-induced human gel filtered platelet aggregation (GFP).; assay type: functional
Numbered stars: 1 amine (or outer) side, 2 acyl side, 3 side chain; on linkers, the order of the positions; unused ones are H or OH. Square brackets hold non-standard residues; d marks the D form. Peptide text beside a SMILES is read from it. Phe(4-F)ψ(2,4-Thz) = O=C(c1csc([C@H](Cc2ccc(F)cc2)N[*:1])n1)[*:2]; Nphe = O=C(O)CNCc1ccccc1
MEASURE NAME: pIC50
Keep it numeric: pIC50 is minus log10 of the concentration in mol/L.

CNCC(=O)N[C@@H](Cc1ccccc1)c1nc(C(=O)N[C@@H](CC2CCCCC2)C(=O)N[C@@H](CCCNC(=N)N)C(=O)NCc2ccccc2)c(C)o1 : 4.44
CC[C@H](C)[C@H](N)C(=O)N[C@@H](Cc1ccc(F)cc1)c1nc(C(=O)N(CC(=O)N[C@@H](CCCN=C(N)N)C(=O)N[C@@H](Cc2ccccc2)C(N)=O)Cc2ccccc2)cs1 (H-I[Phe(4-F)ψ(2,4-Thz)][Nphe]RF-NH2) : 4.10
CNCC(=O)N[C@@H](Cc1ccc(F)cc1)c1nc(C(=O)N[C@@H](CC2CCCCC2)C(=O)N[C@@H](CCCN=C(N)N)C(=O)NCCc2ccccc2)cs1 : 5.00
CNCC(=O)N[C@@H](Cc1ccc(F)cc1)c1nc(C(=O)N[C@@H](CC2CCCCC2)C(=O)N[C@@H](CCCNC(=N)N)C(=O)NCC(C)c2ccccc2)cs1 (stereo not given in full) : 4.80

Now examine the next entry.
Any idea what pIC50 was measured for `CC(C)C[C@H](NC(=O)[C@H](CC(C)C)NC(=O)[C@H](Cc1ccccc1)NC(=O)[C@@H](N)CO)C(=O)N[C@@H](CCCN=C(N)N)C(=O)N[C@@H](CC(N)=O)C(N)=O` ?
6.52
